- system: Schistosoma mansoni thioredoxin glutathione reductase (TGR) (UniProt Q962Y6)
- test_description: qHTS Assay for the Inhibitors of Schistosoma Mansoni Peroxiredoxins; further: nearly all actives have a fitted effect of over 60% in size
- test_conditions: purified TGR, DTNB reduction, TNB absorbance 405 nm; series mostly up to 114 µM
About 11,000 (3.1%) of roughly 360,000 compounds were called active. Inconclusive results (about 4%) are left out. The call rests on the fitted dose curve; in most records, active means well fitted inhibition curve with a large enough effect; inconclusive means small, poorly fitted or top-dose-only effect; inactive means no such curve, though single readings can be large or run the other way. The sample as a whole holds a higher share of actives than the screen did.
Classes used: T for active, F for inactive

CC1(C)CC(=O)C/C(=N\NC(=O)c2cccs2)C1 :: F
Cc1nc(CN2CCN(C(=O)CCc3nnc(Cc4c[nH]c5ccccc45)o3)CC2)cs1 :: T
Cc1ccc(-c2cc(C(=O)N/N=C/C=C/c3ccco3)c3ccccc3n2)cc1C :: T
CCc1ccc(CNC(=O)c2cc3cc4ccc(OC)cc4nc3o2)cc1 :: F
CCOc1ccc(-c2cc3c(=O)n(CC(=O)NCc4ccc(OC)cc4)ccn3n2)cc1 :: F
Cc1nn(C)c(C)c1CN(C(=O)CCc1nnc(Cc2c[nH]c3ccccc23)o1)C(C)C :: T
COc1cccc(CNC(=O)Cn2ncn3c(cc4ccccc43)c2=O)c1 :: F
Cc1ccc(-n2nc(C)c(/C=N/NC(=O)c3cccs3)c2Cl)cc1 :: F
Cc1ccc(Cl)cc1N1CCN(C(=O)c2cnc3c(-c4ccc(F)cc4)c(C)nn3c2C)CC1 :: F
Cc1ccc(-c2cc(C(=O)NC3CCN(Cc4ccccc4)CC3)c3ccccc3n2)cc1 :: F
